I'd be grateful if you could share measured IC50 chromogenic, hu glyco for these entries.
target: glycosylated active human PAI-1 produced by CHO cells (human, UniProt P05121 24-402, N-glycosylated (CHO-produced)); assay: cell-based or functional assay
Sequence (P05121 24-402): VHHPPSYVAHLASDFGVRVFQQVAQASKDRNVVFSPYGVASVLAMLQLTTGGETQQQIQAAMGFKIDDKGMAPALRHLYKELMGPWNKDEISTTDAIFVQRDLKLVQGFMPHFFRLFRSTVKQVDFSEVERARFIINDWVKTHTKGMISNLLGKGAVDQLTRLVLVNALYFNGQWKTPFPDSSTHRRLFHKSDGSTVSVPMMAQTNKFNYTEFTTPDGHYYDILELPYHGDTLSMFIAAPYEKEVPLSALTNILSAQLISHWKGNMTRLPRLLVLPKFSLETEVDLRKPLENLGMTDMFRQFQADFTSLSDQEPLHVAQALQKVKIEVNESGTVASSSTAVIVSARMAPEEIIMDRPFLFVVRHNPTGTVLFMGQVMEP
State the answer as a number, implicitly in nM.

Query block: What value of IC50 chromogenic, hu glyco has been recorded for this entry: Antibody 27, IgG1, not germlined (antibody, V domains shown, whole IgG1; also called Ab 27) VH: QVQLQQSGAEVKKPGSSVKVSCKASGGAFSSYAISWVRQAPGQGLEWMGGIIPTFGTANYAQKFQGRVTITADESTSTAYMELSGLRSEDTAVYYCAREKRQWLEGHFDYWGRGTPVTVSS VL: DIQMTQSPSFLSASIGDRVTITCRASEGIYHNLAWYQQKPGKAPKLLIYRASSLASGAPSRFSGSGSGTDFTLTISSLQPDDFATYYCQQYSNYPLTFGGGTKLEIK
Result block: 2.6

Query block: What value of IC50 chromogenic, hu glyco has been recorded for this entry: Antibody 02, IgG1, not germlined (antibody, V domains shown) VH: QVQLVQSGAEVKKPGSSVKVSCKASGGTFSSYAISWVRQAPGQGLEWMGGIIPTFGTANYAQKFQGRVTITADESTSTAYMELSSLRSEDTAVYYCAREKRQWLEGHFDYWGRGTLVTVSS VL: DIQMTQSPSTLSASVGDRVTITCRASEGIYHSLAWYQQKPGKAPKLLIYKASSLASGVPSRFSGSGSGTEFTLTISSLQPDDFATYYCQQYSDYPLTFGGGTKVEIK
Result block: 1.5

Query block: What value of IC50 chromogenic, hu glyco has been recorded for this entry: Antibody 01, IgG1, not germlined (antibody, V domains shown) VH: QVQLVQSGAEVKKPGSSVKVSCKASGGTFSSYAISWVRQAPGQGLEWMGGIIPIFGTANYAQKFQGRVTITADESTSTAYMELSSLRSEDTAVYYCAREKRQWLEGHFDYWGRGTLVTVSS VL: DIQMTQSPSTLSASVGDRVTITCRASEGIYRSLAWYQQKPGKAPKLLIYKASSLASGVPSRFSGSGSGTEFTLTISSLQPDDFATYYCQQYSNYPLTFGGGTKVEIK
Result block: 1.7

Query block: What value of IC50 chromogenic, hu glyco has been recorded for this entry: Antibody 20, IgG1, not germlined (antibody, V domains shown, whole IgG1; also called Ab 20) VH: QVQLQQSGAEVKKPGSSVKVSCKASGGTFSSYAISWVRQAPGQGLEWMGGIIPTFGTANYAQKFQGRVTITADESTSTAYMELSSLRSEDTAVYYCAREKRQWLEGHFDYWGRGTLVTVSS VL: DIQMTQSPSTLSASVGDRVTITCRASEGIYHELAWYQQKPGKAPKLLIYRASSLASGVPSRFSGSRSGTEFTLTISSLQPDDFATYYCQQYSDYPLTFGGGTKVEIK
Result block: 1.3
